Tested on: canarygrass (Phalaris minor)
Assay: Test B postemergence plant response
Format: in vivo
Conditions: Postemergence, 16 g ai/ha; scale 0 to 100
For each record, write down the corresponding Plant response rating, Canarygrass.

Suppose we examine the compound Cc1cc(-c2ccc(Cl)cc2)nn1-c1c(OC(=O)CC(C)C)cnn(C)c1=O ; what Plant response rating, Canarygrass value has been reported?
10

Suppose we examine the compound CCc1cc(-c2ccc(C(F)(F)F)cc2)nn1-c1c(OC(=O)OC(C)C)cnn(C)c1=O ; what Plant response rating, Canarygrass value has been reported?
100

Suppose we examine the compound Cn1ncc(O)c(-n2nc(-c3ccc(Cl)cc3)cc2C2CC2)c1=O ; what Plant response rating, Canarygrass value has been reported?
0

Suppose we examine the compound CCCc1cc(-c2ccc(C(F)(F)F)cc2)nn1-c1c(O)cnn(C)c1=O ; what Plant response rating, Canarygrass value has been reported?
30
